Tested on: Staphylococcus aureus
PROTOCOL SUMMARY: Antibacterial activity against methicillin-resistant Staphylococcus aureus LAC USA300 after 18 hrs by broth microdilution assay
Format: functional
RECORDED METRIC: MIC

Worked cases, answers included:
{"COMPOUND": "CCCCCCCCCCCCOC[C@H]1O[C@H](OC)[C@@H](O)[C@@H](O)[C@@H]1O", "MIC": "90 µM"}
{"COMPOUND": "CCCCCCCCCCC[C@@H]1OC[C@H]2O[C@@H](OC)[C@H](O)[C@@H](O)[C@@H]2O1", "MIC": "180 µM"}
{"COMPOUND": "CCCCCCCCCCCCOC[C@H]1O[C@H](OC)[C@H](O)[C@@H](O)[C@H]1O", "MIC": "> 710 µM"}
{"COMPOUND": "CCCCCCCCCCCCO[C@H]1[C@H](OC)O[C@@H](C)[C@H](O)[C@H]1O", "MIC": "90 µM"}

Shifting focus to the compound that follows.
input: Look up and report measured MIC for this entry: Cc1onc(-c2ccccc2)c1C(=O)N[C@@H]1C(=O)N2[C@@H]1SC(C)(C)[C@@H]2C(=O)O [OXACILLIN]
output: 160 µM

---

System: Staphylococcus aureus
PROTOCOL SUMMARY: Antibacterial activity against daptomycin-resistant Staphylococcus aureus isolate ST 2015-0989 after 18 hrs by broth microdilution assay
Type: functional
STATED CONDITIONS: isolate ST 2015-0989, 18 h
Record form. Attribute: MIC. Fill in for each entry.
One number for each entry, in µM.

Worked cases, answers included:
{"COMPOUND": "CCCCCCCCCCCCO[C@H]1[C@H](OC)O[C@@H](C)[C@H](O)[C@H]1O", "MIC [µM]": 180}
{"COMPOUND": "CCCCCCCCCCCCOC[C@H]1O[C@H](OC)[C@@H](O)[C@@H](O)[C@@H]1O", "MIC [µM]": 180}
{"COMPOUND": "CCCCCCCCCCC[C@@H]1OC[C@H]2O[C@@H](OC)[C@H](O)[C@@H](O)[C@@H]2O1", "MIC [µM]": 180}

Shifting focus to the compound that follows.
input: Would you please give the reported MIC of Cc1onc(-c2ccccc2)c1C(=O)N[C@@H]1C(=O)N2[C@@H]1SC(C)(C)[C@@H]2C(=O)O [OXACILLIN] with Staphylococcus aureus?
output: 320

---

System: Staphylococcus aureus
PROTOCOL SUMMARY: Antibacterial activity against Staphylococcus aureus ATCC 29213 after 18 hrs by broth microdilution assay
Type: functional
STATED CONDITIONS: ATCC 29213, 18 h
Record form. Attribute: MIC. Fill in for each entry.
One number for each entry, in µM.

Worked cases, answers included:
{"MOL": "CCCCCCCCCCCCOC[C@H]1O[C@H](OC)[C@@H](O)[C@@H](O)[C@@H]1O", "TEST SYSTEM": "Staphylococcus aureus", "VALUE MEASURED": 90}
{"MOL": "CCCCCCCCOC[C@H]1O[C@H](OC)[C@H](O)[C@@H](O)[C@@H]1O", "TEST SYSTEM": "Staphylococcus aureus", "VALUE MEASURED": 2000}

Shifting focus to the molecule that follows.
input: Look up and report measured MIC for this entry: "CCCCCCCCCCCC(=O)OC[C@H]1O[C@H](OC)[C@H](O)[C@@H](O)[C@@H]1O"
output: 320

---

Test system: Staphylococcus aureus
PROTOCOL SUMMARY: Antibacterial activity against Staphylococcus aureus ATCC 29213 after 18 hrs by broth microdilution assay
Format: functional
STATED CONDITIONS: ATCC 29213, 18 h
Record form. Attribute: MIC. Fill in for each entry.
Give bare numbers, in µM.

Worked cases, answers included:
{"MOL": "CCCCCCCCCCOC[C@H]1O[C@H](OC)[C@H](O)[C@@H](O)[C@@H]1O", "MIC, µM": 2000}
{"MOL": "Cc1onc(-c2ccccc2)c1C(=O)N[C@@H]1C(=O)N2[C@@H]1SC(C)(C)[C@@H]2C(=O)O", "MIC, µM": 1}
{"MOL": "CCCCCCCCCCCCO[C@H]1[C@H](OC)O[C@@H](C)[C@H](O)[C@H]1O", "MIC, µM": 50}

Answer for every listed entry: what is its MIC? The entries follow.
1. CCCCCCCCCCC[C@@H]1OC[C@H]2O[C@@H](OC)[C@H](O)[C@@H](O)[C@@H]2O1
2. CCCCCCCCCCCCOC[C@H]1O[C@H](OC)[C@H](O)[C@@H](O)[C@@H]1O

output:
180
40

---

Record form. Attribute: CMC. Fill in for each entry.
PROTOCOL SUMMARY: Surfactant property of the compound in water assessed as critical micelle concentration or minimal hydrotropic concentration by platinum rod based tensiometric method
Give bare numbers, in mmol/L.

{"MOL": "CCCC[C@@H]1OC[C@H]2O[C@H](OC)[C@H](O)[C@@H](O)[C@@H]2O1", "VALUE MEASURED": 82}

Shifting focus to the compound that follows.
input: Look up and report measured CMC for this entry: "CCCCCOC[C@H]1O[C@H](OC)[C@H](O)[C@@H](O)[C@@H]1O"
output: 35

---

System: Enterococcus faecium
PROTOCOL SUMMARY: Antibacterial activity against Enterococcus faecium CIP 103510 after 18 hrs by broth microdilution assay
Type: functional
STATED CONDITIONS: CIP 103510, 18 h
RECORDED METRIC: MIC (µM)
One number for each entry, in µM.

Worked cases, answers included:
{"MOL": "CCCCCCCCCCCCOC[C@H]1O[C@H](OC)[C@@H](O)[C@@H](O)[C@@H]1O", "MIC / µM": 90}
{"MOL": "CCCCCCCCCCC[C@@H]1OC[C@H]2O[C@@H](OC)[C@H](O)[C@@H](O)[C@@H]2O1", "MIC / µM": 90}
{"MOL": "CC1(C)S[C@@H]2[C@H](NC(=O)[C@H](N)c3ccc(O)cc3)C(=O)N2[C@H]1C(=O)O", "MIC / µM": 60}

input: Would you please give the reported MIC of "CCCCCCCCCCCCO[C@H]1[C@H](OC)O[C@@H](C)[C@H](O)[C@H]1O" with Enterococcus faecium?
output: 50

---

PROTOCOL SUMMARY: Surfactant property of the compound in water assessed as critical micelle concentration or minimal hydrotropic concentration by platinum rod based tensiometric method
Record form. Attribute: CMC. Fill in for each entry.
Give bare numbers, in mmol/L.

{"MOL": "CCCCCCCCCCCCOC[C@H]1O[C@H](OC)[C@H](O)[C@@H](O)[C@@H]1O", "VALUE MEASURED": 0.03}
{"MOL": "CCCCCCCCC[C@@H]1OC[C@H]2O[C@H](OC)[C@H](O)[C@@H](O)[C@@H]2O1", "VALUE MEASURED": 0.15}
{"MOL": "CCCCCCCCCCOC[C@H]1O[C@H](OC)[C@H](O)[C@@H](O)[C@@H]1O", "VALUE MEASURED": 0.277}
{"MOL": "CCCCCCCCCCCCO[C@H]1[C@H](O)[C@@H](O)[C@@H](OC)O[C@@H]1CO", "VALUE MEASURED": 0.046}
{"MOL": "CCCCCCCCCCCCOC[C@H]1O[C@H](OC)[C@H](O)[C@@H](O)[C@H]1O", "VALUE MEASURED": 0.47}

Answer for every listed entry: what is its CMC? The entries follow.
1. CCCCCCC[C@@H]1OC[C@H]2O[C@H](OC)[C@H](O)[C@@H](O)[C@@H]2O1
2. CCCCC[C@@H]1OC[C@H]2O[C@H](OC)[C@H](O)[C@@H](O)[C@@H]2O1
3. CCCCCCOC[C@H]1O[C@H](OC)[C@H](O)[C@@H](O)[C@@H]1O
4. CCCCCCCCOC[C@H]1O[C@H](OC)[C@H](O)[C@@H](O)[C@@H]1O

output:
1: 2.5; 2: 6.5; 3: 13.4; 4: 0.434
